Test system: Malme-3M
Experiment: NCI tumour cell line growth inhibition, 48 h
Activity calls are given as the source filed them. Rule as the data show it: active = GI50 up to about 1.1 µM and inactive = higher.
# valid calls are 1 for active, -1 for inactive; nothing else

Ask: Hi, sorry to bother you, what did the test record for `Cc1nccn1S(=O)(=O)c1ccc(Cl)cc1` ?
Result: -1

Ask: Hi, sorry to bother you, what did the test record for N#CC1=C(N)OC(c2cccc([N+](=O)[O-])c2)C1(C#N)C#N (stereo unspecified) ?
Result: -1

Ask: Hi, sorry to bother you, what did the test record for `O=C1NC(=S)NC(=O)C1=Cc1ccc[nH]1` ?
Result: -1

Ask: Hi, sorry to bother you, what did the test record for `C[N+]1=c2c3cccc4cccc(c(=O)n2CCC1)c43` ?
Result: -1

Ask: Hi, sorry to bother you, what did the test record for COC(=O)CC(C(C(=O)OCc1ccccc1)C(C)O)N1C(=O)OCC1c1ccccc1 (stereo unspecified) ?
Result: -1

Ask: Hi, sorry to bother you, what did the test record for `COc1ccc(/C(Cl)=C(\C=O)c2ccc(Cl)cc2)cc1OC` ?
Result: -1

Ask: Hi, sorry to bother you, what did the test record for `CC(=O)/C=C\C(=O)NNS(=O)(=O)c1ccc(C)cc1` ?
Result: -1

Ask: Hi, sorry to bother you, what did the test record for CC(O)c1c2c(cc3c1CC1(C3)Cc3cc4c(c(C(C)O)c3C1)CCC4)CCC2 (stereo unspecified) ?
Result: -1

Ask: Hi, sorry to bother you, what did the test record for `COC(=O)C(=NNc1ccccc1[N+](=O)[O-])C(=O)OC` ?
Result: -1

Ask: Hi, sorry to bother you, what did the test record for `[N-]=[N+]=Nc1c(N2CCOCC2)c(Cl)nc2ccccc12` ?
Result: -1

Ask: Hi, sorry to bother you, what did the test record for `Cc1cc(N(CCC#N)CCC#N)ccc1/C(Sc1ccccc1)=C(\NC(=O)/C=C/c1ccccc1)C(=O)Sc1ccccc1` ?
Result: -1

Ask: Hi, sorry to bother you, what did the test record for O=C(CN1C(=O)c2ccccc2C1=O)OCC1CCCN2CCCCC12 (stereo unspecified) ?
Result: -1

Ask: Hi, sorry to bother you, what did the test record for `COc1ccc2[nH]c3c4c(ccc3c2c1)C(=O)C=CC4=O` ?
Result: -1

Ask: Hi, sorry to bother you, what did the test record for `CNC1=Nc2ccc(Cl)cc2C(c2ccccc2)=NN1C` ?
Result: -1

Ask: Hi, sorry to bother you, what did the test record for `COc1cc2c(cc1OC)CC(=O)c1cc(OC)c(OC)cc1/C=C\2` ?
Result: -1

Ask: Hi, sorry to bother you, what did the test record for `CC(C)(C)c1cc(C(C)(C)C)c2c(c1O)OC(=O)CS2` ?
Result: -1

Ask: Hi, sorry to bother you, what did the test record for `Cc1cc(Cc2cc(C)c(NC(=O)C(=O)C3C(=O)NC(=S)NC3=O)c(C(C)C)c2)cc(C(C)C)c1NC(=O)C(=O)C1C(=O)NC(=S)NC1=O` ?
Result: -1

Ask: Hi, sorry to bother you, what did the test record for `Cc1cccc(-c2cc(=O)c3cc(C)c(C)c(C(=O)O)c3o2)c1` ?
Result: -1

Ask: Hi, sorry to bother you, what did the test record for C=CCOC1=C(OC(C)=O)C(=O)OC1C1COC(C)(C)O1 (stereo unspecified) ?
Result: -1

Ask: Hi, sorry to bother you, what did the test record for CCCCCCCCCCCCCCCCCCNc1ccn(C2OC(COP(=O)(O)OCC3OC(n4cc(C)c(=O)[nH]c4=O)CC3F)C(O)C2O)c(=O)n1 (stereo unspecified) ?
Result: -1

Ask: Hi, sorry to bother you, what did the test record for `Brc1ccc(/N=N/c2ccc3ccccc3n2)cc1` ?
Result: -1

Ask: Hi, sorry to bother you, what did the test record for `COc1ccc(NC(=O)/C(=C/c2ccccc2)C(C)=O)cc1` ?
Result: -1

Ask: Hi, sorry to bother you, what did the test record for `Brc1ccc2c(-c3csc(-c4c[nH]c5cc(Br)ccc45)n3)c[nH]c2c1` ?
Result: -1

Ask: Hi, sorry to bother you, what did the test record for `COC(=O)CCCC(=O)/C(=N\Nc1ccc(Cl)cc1)Nc1c(Cl)cccc1Cl` ?
Result: -1

Ask: Hi, sorry to bother you, what did the test record for `CN(C)/C=N\c1c(Br)cc(Br)c2nonc12` ?
Result: -1

Ask: Hi, sorry to bother you, what did the test record for `Cc1cc(S(=O)(=O)N2CCNNC2=O)c(S)cc1Cl` ?
Result: -1

Ask: Hi, sorry to bother you, what did the test record for `CN(C)CCCc1cccnc1` ?
Result: -1

Ask: Hi, sorry to bother you, what did the test record for `S=C(N/N=C(/c1ccccc1)c1ccccn1)N1CCCCCC1` ?
Result: 1

Ask: Hi, sorry to bother you, what did the test record for `O=C(Nc1c(Cl)cccc1Cl)c1c(Cl)c(Cl)c(Cl)c(Cl)c1-c1nc2ccccc2[nH]1` ?
Result: -1

Ask: Hi, sorry to bother you, what did the test record for `Cc1n[nH]c(=O)c2c3c([nH]c12)-c1ccccc1C3` ?
Result: -1

Ask: Hi, sorry to bother you, what did the test record for `Cc1ccc(S(=O)(=O)Nc2cccc(C)c2C)cc1` ?
Result: -1

Ask: Hi, sorry to bother you, what did the test record for `Cc1ccccc1N/C(=C(/C(Cl)=C(Cl)Cl)[N+](=O)[O-])n1nnc2ccccc21` ?
Result: -1

Ask: Hi, sorry to bother you, what did the test record for `O=C(O)CN1CCNCCN(CC(=O)O)CC1` ?
Result: -1

Ask: Hi, sorry to bother you, what did the test record for `COc1ccc([N+]2=NC(c3ccc([N+](=O)[O-])cc3)=NN(c3ccccc3)C2)cc1` ?
Result: -1

Ask: Hi, sorry to bother you, what did the test record for O=[N+]([O-])c1ccc(Cl)c(CNc2ncnc3c2ncn3C2CCCCO2)c1 (stereo unspecified) ?
Result: -1

Ask: Hi, sorry to bother you, what did the test record for `NC(=O)c1c(-c2ccccc2)c(-c2ccccc2)cc2c(=O)c3ccccc3[nH]c12` ?
Result: -1

Ask: Hi, sorry to bother you, what did the test record for `CC(C)[C@H](O)C(=O)N[C@H]1Cc2ccc3c(c2)[C@]24C5=C(N=C(O5)[C@H](C(C)C)NC1=O)c1nc(Cl)c(o1)-c1c(Cl)[nH]c5cccc(c15)-c1cccc2c1N[C@H]4O3` ?
Result: 1

Ask: Hi, sorry to bother you, what did the test record for `O=C1Nc2cc(Cl)ccc2C(=O)N2CCC[C@@H]12` ?
Result: -1

Ask: Hi, sorry to bother you, what did the test record for COc1ccc(CC2C(=O)NC(C)C(=O)N(C)C3C(=O)N(C)C(Cc4ccc(O)c(c4)Oc4ccc(cc4)C3O)C(=O)NC(C)C(=O)NC(C)C(=O)N2C)cc1 (stereo unspecified) ?
Result: 1

Ask: Hi, sorry to bother you, what did the test record for `Oc1c(Cl)c2nccnc2c2ccccc12` ?
Result: -1

Ask: Hi, sorry to bother you, what did the test record for COc1ccc(NC(C)=O)cc1N1C(=O)/C(=C\c2cccc(Oc3ccccc3)c2)SC1c1ccccc1 (stereo unspecified) ?
Result: -1
